Listed compounds paired with reported normalized growth
# PROTOCOL TEXT: chemical genetic growth profiling, strain panel (AID 1159580);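 note: tested at 20 µM; growth read once vehicle control cultures reached saturation at 30 °C; 1 = growth at the plate median or of vehicle wells; lower values mean less growth of the strain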
# REPORTED CONDITIONS: S. cerevisiae deletion strains, growth OD, locus YNL067W, strain RPL9B, active compounds read low
Hit rate of the full screen: of about 5,500 compounds, about 2,000 (36%) were called active. Another 18% or so got no clear call; they are omitted. The list shows a part of the results.

Some entries whose results are on file:
COMPOUND	VALUE MEASURED
NNc1nncc2ccccc12	1.01 (inactive)
Nc1c2c(nc3ccccc13)CCCC2O (stereo not given)	1.01 (inactive)
COc1ccc2c3c([nH]c2c1)C(C)=NCC3	0.999 (inactive)

Asked: Annotate the compound COC(=O)C[C@H]1C(C)(C)C2(O)OC34CC2C(=O)[C@]1(C)C3CC[C@]1(C)C4=CC(=O)O[C@H]1c1ccoc1 (stereo not given in full) with its measured normalized growth.
Given back: 1 (inactive)

---

# PROTOCOL TEXT: chemical genetic growth profiling, strain panel (AID 1159580);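 note: tested at 20 µM; growth read once vehicle control cultures reached saturation at 30 °C; 1 = growth at the plate median or of vehicle wells; lower values mean less growth of the strain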
# REPORTED CONDITIONS: S. cerevisiae deletion strains, growth OD, locus YLR058C, strain SHM2 (second series), active compounds read low
The whole screen tested about 5,500 compounds, of which about 2,000 (36%) were called active. About 18% were inconclusive and are not listed. This is one part of the list.
READOUT NAME: normalized growth
API doc: respond with a numeric literal and nothing else, no unit.

Below: 5 compounds and their reported normalized growth.
COMPOUND	normalized growth
Cc1noc(C)c1NC(N)=O	0.992
FC(F)(F)c1cccc(CSc2n[nH]c(=S)s2)c1	0.797
Cc1noc(C)c1C(=O)N1CCN(c2ncc(C(F)(F)F)cc2Cl)CC1	1
CS/C(N)=N\N=C/c1c(F)cccc1Cl	0.998
COc1cccc(-c2nc(C#N)c(N)o2)c1	0.99

Asked: Please give measured normalized growth of the following entry: COC(=O)c1cccc(NC(=O)CC2C(=O)NCCN2C(=O)c2cccs2)c1 (stereo unspecified)
Given back: 0.996

Asked: Query normalized growth for CCCc1nc(-c2ccccn2)[nH]c(=O)c1CC1CC1
Given back: 0.938

Asked: Answer with reported normalized growth of CCc1cc2c(cc1C(=O)CC1(O)C(=O)Nc3ccc(Br)cc31)C(C)(C)CCC2(C)C (stereo unspecified)
Given back: 1.01

Asked: Give the measured normalized growth for CC12CCC3C4CCC(=O)C=C4CCC3C1CCC2=O (stereo unspecified)
Given back: 1.01

Asked: Give normalized growth for the following compound: CCOC(=O)c1nc(-c2ccccc2)sc1C(=O)OCC
Given back: 0.968

Asked: For the compound O=C(CSCc1c(F)cccc1Cl)Nc1ccc(F)c(Cl)c1 , report normalized growth.
Given back: 0.908

Asked: // Input: c1cc2c(cc1N=C1SCC3CCCCN13)OCO2 (stereo unspecified) . Output its normalized growth only.
Given back: 1

Asked: Tell us which normalized growth value is on record for Nc1ccccc1C(=O)N/N=C\c1cccc2ccccc12
Given back: 0.991

Asked: Consider the compound Cc1c(S(=O)(=O)c2ccc(Cl)cc2)cnc2cc(C(C)(C)C)nn12 . State its measured normalized growth.
Given back: 1.01

Asked: Read the entry Cc1cc(OCOc2ccc(Cl)c(C)c2)ccc1Cl and write its reported normalized growth.
Given back: 0.989

Asked: Return normalized growth (reported value) for this compound: COC(=O)C1Cc2c([nH]c3ccccc23)C2(CCN(C)CC2)N1 (stereo unspecified)
Given back: 1.01

Asked: Given the compound Cc1cccc(NC(=S)NC2CC3C=CC2C3)c1 (stereo unspecified) , write its reported normalized growth.
Given back: 0.993

Asked: Quote normalized growth reported for O=C1CC(CSc2ccc(Cl)cc2)=NN1 please.
Given back: 0.949

Asked: Provide only the value of recorded normalized growth for S=c1[nH]nc(SCCSc2n[nH]c(=S)s2)s1
Given back: 0.989

Asked: Fill in normalized growth for record O=C1ON=C(CSc2ccccc2)/C1=C/c1ccc(Cl)cc1
Given back: 0.0598

Asked: # return recorded normalized growth for entry Cc1noc(C)c1-c1nc(-c2cc(C(F)(F)F)cc(C(F)(F)F)c2)no1
Given back: 0.993

---

# PROTOCOL TEXT: chemical genetic growth profiling, strain panel (AID 1159580);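 note: tested at 20 µM; growth read once vehicle control cultures reached saturation at 30 °C; 1 = growth at the plate median or of vehicle wells; lower values mean less growth of the strain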
# REPORTED CONDITIONS: S. cerevisiae deletion strains, growth OD, locus YJR075W, strain HOC1
In all, about 5,500 compounds went through this assay and about 2,000 (36%) were called active. Not shown: some 18% with an inconclusive outcome. No stated cut-off is given here; in the data, active means normalized growth mostly below about 0.91 (no sharp cut-off); inconclusive means no clear call, values can overlap the other calls; inactive means mostly above about 0.92. The list shows a part of the results.
Please answer using one outcome listed in 1 (yes) (active), 0 (no) (inactive)

Asked: Short answer needed: outcome of this test for O=c1[nH]cc(F)c(=O)[nH]1 ?
Given back: 1 (yes)

Asked: Which outcome was assigned to Cc1nn(C)c(C)c1NS(=O)(=O)c1cc(Cl)sc1Cl in this test?
Given back: 0 (no)

Asked: Please state the recorded outcome for this compound: CCC(C)C(=O)O[C@H]1[C@H](O)C2C(CN3CC(C)CCC3[C@@]2(C)O)C2C[C@]34O[C@]5(O)C(OC(=O)C(C)(O)CC)CC[C@@]3(C)C5C(OC(C)=O)[C@@H](OC(C)=O)C4[C@@]21O (stereo not given in full)
Given back: 0 (no)

Asked: Which outcome was entered for the compound CC(C)(C)c1ccc(-c2n[nH]c(=S)n2-c2cccc(C(F)(F)F)c2)cc1 in this test?
Given back: 1 (yes)

---

# PROTOCOL TEXT: chemical genetic growth profiling, strain panel (AID 1159580);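 note: tested at 20 µM; growth read once vehicle control cultures reached saturation at 30 °C; 1 = growth at the plate median or of vehicle wells; lower values mean less growth of the strain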
# REPORTED CONDITIONS: S. cerevisiae deletion strains, growth OD, locus YOR083W, strain WHI5
About 2,000 (36%) of roughly 5,500 compounds were called active. About 18% were inconclusive and are not listed. Rule as the data show it: active = normalized growth mostly below about 0.91 (no sharp cut-off); inconclusive = no clear call, values can overlap the other calls; inactive = mostly above about 0.92. Some of the results follow.
Hi there, use one of these labels in your reply, thanks! active, inactive

Some solved entries appear below for comparison.
MOLECULE	CLASS LABEL
N=C(N)c1ccc(OCCCCCOc2ccc(C(=N)N)cc2)cc1	inactive
Nc1ccc(S(=O)(=O)Nc2cnc3ccccc3n2)cc1	inactive
O=c1[nH]cc(F)c(=O)[nH]1	active
CC1(C)CCC2(C(=O)O)CCC3(C)C(=CCC4C5(C)CCC(O)C(C)(C)C5C(O)CC43C)C2C1 (centres undefined)	inactive
COc1cc(C(=O)O[C@H]2CC[C@@]3(C)[C@@H]4CC[C@H]5[C@]6(O)C[C@H](O)[C@@]7(O)[C@@H](CN8C[C@@H](C)CC[C@H]8[C@@]7(C)O)[C@]6(O)C[C@@]53O[C@]24O)cc(OC)c1OC	inactive
O=c1oc2cc(O)ccc2s1	inactive
CC1(C)CC[C@@]2(C(=O)O)C(C1)C1=CCC3[C@@]4(C)CC[C@H](O)C(C)(C)C4CC[C@@]3(C)[C@]1(C)C[C@@H]2O (some centres undefined)	inactive
C[C@H]1[C@H](C)CC[C@]2(CO)CC[C@]3(C)C(=CCC4[C@@]5(C)CC[C@H](O)C(C)(C)C5CC[C@]43C)[C@H]12 (some centres undefined)	inactive

Asked: Outcome? COC(=O)Nc1nc2ccc(S(=O)c3ccccc3)cc2[nH]1 (centres undefined)
Given back: inactive

Asked: Look up the recorded call for COC(=O)Nc1nc2ccc(Sc3ccccc3)cc2[nH]1 in this test.
Given back: inactive

Asked: Would you mind telling me which call this test gave COC(=O)C[C@H]1C(C)(C)C(=O)[C@@H]2CC3C4=CC(=O)O[C@@H](c5ccoc5)[C@]4(C)CCC3[C@@]1(C)C2=O (some centres undefined) ?
Given back: inactive

Asked: Recorded test call requested for CCOC(=O)OC(C)OC(=O)C1N2C(=O)C(NC(=O)[C@H](N)c3ccccc3)C2SC1(C)C (some centres undefined)
Given back: inactive

Asked: # fetch the recorded call for Cc1cc(-n2c(=O)[nH]c(=O)n(C)c2=O)ccc1Oc1ccc(SC(F)(F)F)cc1 here
Given back: active

Asked: Identify the outcome logged in this assay for the molecule shown: CC(C)CC(N(C)C)C1(c2ccc(Cl)cc2)CCC1 (centres undefined)
Given back: inactive

Asked: // param item: C/C=C(/C)C(=O)OC1CCC2(C)C3CCC4C5(O)CC(O)C6(O)C(CN7CC(C)CCC7C6(C)O)C5(O)CC42OC13O (centres undefined) ; yields the recorded call
Given back: inactive

Asked: Short answer needed: outcome of this test for NC(Cc1c[nH]c2ccccc12)C(=O)O (centres undefined) ?
Given back: inactive

Asked: Can you look up the reported call for C[C@@H]1CC[C@]2(C(=O)O)CC[C@]3(C)C(=CCC4[C@@]5(C)CC[C@H](O)C(C)(C)C5CC[C@]43C)C2[C@H]1C (some centres undefined) for me?
Given back: inactive

Asked: Per the records of this test, what outcome belongs to CC(C)(Oc1ccc(CCNC(=O)c2ccc(Cl)cc2)cc1)C(=O)O ?
Given back: inactive

Asked: What is the recorded call for this molecule in the test? COC(=O)Nc1nc2ccc(C(=O)c3ccccc3)cc2[nH]1
Given back: inactive
